Data provenance is patent US20170369590A1.

- ASSAYED_SYSTEM: T1, HER2ECDHis (human, UniProt P04626 23-653, biotinylated in the cross-block ELISA (sites not given))
- T1 construct: range 1-653; expressed in HEK-293F; also called soluble HER2; biotinylated HER2ECDHis
- ASSAY_REMARKS: ELISA; competitor 169
READOUT: % binding vs no competitor (%)
Express the result in % but write the number alone.

Below: 4 binders and their reported % binding vs no competitor.
BINDER	% binding vs no competitor (%)
HuMab 129 (antibody, V domains shown) VH: QVQLVESGGGVVQPGRSLRLSCAASGFTFSTFAIHWVRQAPGKGLEWVAVISYDGGHKFYADSVKGRFTISRDNSKNTLYLQMNSLRAEDTAMYYCARGLGVWGAFDYWGQGTLVTVSS VL: EIVLTQSPATLSLSPGERATLSCRASQSVSSYLAWYQQKPGQAPRLLIYDASNRATGIPARFSGSGSGTDFTLTISSLEPEDFAVYYCQQRSNWWTFGQGTKVEIK	99
HuMab 050 (antibody, V domains shown, also called TH1014-050; PC1014-050) VH: EVQLLESGGGLVQPGGSLRLSCAASGFTFSSYAMNWVRQAPGKGLEWVSAISGRGGTTYYADSVKGRFTISRDNSKNTLYLQMSSLRAEDTAVYYCAKARANWDYFDYWGQGTLVTVSS VL: DIQMTQSPSSVSASVGDRVTITCRASQGISSWLAWYQHKPGKAPKLLIYAASILQSGVPSRFSGSGSGTDFTLTISSLQPEDFATYYCQQANSFPITFGQGTRLEIK	30
HuMab 169 (antibody, V domains shown, also called TH1014-169; PC1014-169) VH: QVQLVQSGAEVKKPGASVKVSCKASGYTFTNYGISWVRQAPGQGLEWMGWLSAYSGNTIYAQKLQGRVTMTTDTSTTTAYMELRSLRSDDTAVYYCARDRIVVRPDYFDYWGQGTLVTVSS VL: EIVLTQSPATLSLSPGERATLSCRASQSVSSYLAWYQQKPGQAPRLLIYDASNRATGIPARFSGSGSGTDFTLTISSLEPEDFAVYYCQQRSNWPRTFGQGTKVEIK	45
HuMab 098 (antibody, V domains shown, also called TH1014-098; PC1014-098) VH: EVQLLESGGGLVQPGGSLRLSCAASGFTFSNYGMSWVRQAPGKGLEWVSAISGSAYSTYYADSVKGRFTISRDNSKNTLWLQMNSLRAEDTAVYYCAKAHYHGSGSYYTLFDYWGQGTLVTVSS VL: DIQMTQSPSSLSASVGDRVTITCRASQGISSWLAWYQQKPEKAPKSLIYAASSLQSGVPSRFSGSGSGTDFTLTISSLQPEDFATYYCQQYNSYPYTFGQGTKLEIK	102

With those in mind, consider the next binder.
Prompt: Report % binding vs no competitor, nothing else, for this binder: HuMab 091 (antibody, V domains shown, also called TH1014-091; PC1014-091) VH: QVQLQQWGAGLLKPSETLSLTCAVSGGSFSGYYWTWIRQPPGKGLEWIGEIYHSGDTNYNPSLKSRVTISVDTSKNQFSLKLYSVTAADTAVYYCARLYFGSGIYYLDYWGQGTLVTVSS VL: DIQMTQSPSSLSASVGDRVTITCRASQGISSWLVWYQQKPEKAPKSLIYAASSLQSGVPSRFSGSGSGTDFTLTISSLQPEDFATYYCQQYNSFPPTFGQGTKVEIK
Response: 99
